Sourced from the supplement of paper PMC9112550

Test system: Escherichia coli TOP10;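 note: peptides expressed intracellularly from a pBAD plasmid library in pooled LB shake-flask culture, induced with 0.3% L-arabinose, DNA abundance read by NGS, three biological replicates, DESeq2 with apeglm shrinkage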
Experiment: shrunken log2 fold change of peptide-encoding DNA abundance (4.5 h post-induction vs induction); higher = less antimicrobial activity (less host growth inhibition)
Details: time post-induction: 4.5 h; library: site-saturation at positions 5, 18, 19, 20
quantity-kind: shrunken log2 fold change

[[record]]
sequence_input = "RRIRMRPPRLPRPRPRPDWSPRP"
result = -0.0229

[[record]]
sequence_input = "RRIRKRPPRLPRPRPRPNSGPRP"
result = 0.0179

[[record]]
sequence_input = "RRIRHRPPRLPRPRPRPEEAPRP"
result = 0.015

[[record]]
sequence_input = "RRIRFRPPRLPRPRPRPADVPRP"
result = 0.258

[[record]]
sequence_input = "RRIRQRPPRLPRPRPRPIWWPRP"
result = 0.127


Prompt: Bench note: what shrunken log2 fold change did `RRIRCRPPRLPRPRPRPKDIPRP` show?
Response: -0.0796

Prompt: Using the record for `RRIRMRPPRLPRPRPRPVFMPRP` , report its shrunken log2 fold change.
Response: -0.202

Prompt: For `RRIRVRPPRLPRPRPRPSIPPRP` , what is its reported shrunken log2 fold change?
Response: -0.52

Prompt: What value of measured shrunken log2 fold change is listed for `RRIRPRPPRLPRPRPRPGRAPRP` ?
Response: 0.549
